Tested on: aorta pieces of rat
testMethodNotes: Antiangiogenic effect: capillary formation from rat aorta pieces incubated in collagen
Assay type: cell-based
experimentalContext: numbers of capillaries formed around the aorta, 7th day from addition of test compound
IC50 for assorted molecules
Report only the number, with the unit µg/mL understood.

# molecule, IC50 [µg/mL]
measured = [
    ("Cc1cc(NS(=O)(=O)c2ccc(S(N)(=O)=O)cc2)c2[nH]cc(Br)c2c1 [Example 3]", 0.1),
]

Under aorta pieces of rat: IC50 value of Nc1ccc(S(=O)(=O)Nc2ccc(Cl)c3c(Br)c[nH]c23)cn1 [Example 8] ? 0.05

Param item: Cc1cc(NS(=O)(=O)c2ccc(C#N)s2)c2[nH]cc(Br)c2c1 [Example 9] 0.05

Queued: Nc1ccc(S(=O)(=O)Nc2ccc(Cl)c3cc[nH]c23)cn1 [Example 7] 0.42

And then Nc1ncc(S(=O)(=O)Nc2ccc(Br)c3c(Cl)c[nH]c23)cn1 [Example 10] , what is it? 0.06

// query: Nc1ccc(S(=O)(=O)Nc2cc(Br)cc3c(Cl)c[nH]c23)cn1 [Example 4] 0.1

Same read-out for Cc1cc(NS(=O)(=O)c2cccc(C#N)c2)c2[nH]cc(Br)c2c1 [Example 5] ? 0.15

Entry N#Cc1ccc(S(=O)(=O)Nc2ccc(Br)c3cc[nH]c23)cc1 [Example 6] please 0.06

Next: Cc1ccc(NS(=O)(=O)c2ccc(Cl)nc2)c2[nH]cc(C#N)c12 [Example 2] 0.07

Another: Cc1ccc(NS(=O)(=O)c2cccc(C#N)c2)c2[nH]cc(C#N)c12 [Example 1] 0.08
